- System: C. albicans strain BWP17
- ASSAY TEXT: Growth inhibition of C. albicans in vitro
- Format: cell-based, Candida albicans
- MEASUREMENT PARAMETERS: read-out: IC50, C. albicans proliferation
Catalogue of IC50 readings, one per entry.
ENDPOINT NAME: IC50

- C[N+](C)(CCO)CCCCCCCCCCCCCCCC[N+](C)(C)CCO.[Br-].[Br-]: ~5 µM
- C[N+]1(CCCCCCCCCCCCCCCC[N+]2(C)CCCC2)CCCC1.[Br-].[Br-]: ~5 µM
- CCCCCCCCCCCCCCCCCC[N+](C)(C)C.[Cl-]: ~1 µM

----------
- Test system: P. falciparum
- ASSAY TEXT: P. falciparum growth in vitro (antimalarial activity)
- Format: cell-based, Plasmodium falciparum
- MEASUREMENT PARAMETERS: predicted by QSAR and confirmed experimentally; read-out: IC50, in vitro anti-malarial activity
ENDPOINT NAME: IC50

• CCc1sc[n+](CCCCCCCCCCCC[n+]2csc(CC)c2C)c1C.[I-].[I-] [T16] = ~16 nM
